This collection of values is drawn from patent US7728043B2.

tested on: cells treated with βA peptide; assay: Protection of cells from βA peptide insult, statements in words (MTT assay, cells not singled out); assay type: cell-based; settings: MTT reduction assay; PC12, IMR32, HUVEC cells where named in the sentence
recorded.metric: Protection of cells from βA peptide-induced toxicity, in words

Would you please look over these solved cases?
CCCCCCCCC=CC(=O)CCc1ccc(O)cc1 [Compound 50, [9]-demethoxyshogaol] :: effectively protected
COc1cc(C=CC(=O)CC(=O)C=Cc2ccc(O)cc2)ccc1O :: protected
CCCCCCCC/C=C/C(=O)CCc1ccc(O)c(OC)c1 [Compound 13, [9]-shogaol] :: effectively protected
CCC/C=C/C(=O)CCc1ccc(O)c(OC)c1 :: effectively protected

# input for lookup
Lab note: measured Protection of cells from βA peptide-induced toxicity, in words of O=C(C=Cc1ccc(O)cc1)CC(=O)C=Cc1ccc(O)cc1 was protected
